Provenance of the data: PubChem BioAssay AID1159580

assay: chemical genetic growth profiling, strain panel (AID 1159580);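 also: tested at 20 µM; growth read once vehicle control cultures reached saturation at 30 °C; 1 = growth at the plate median or of vehicle wells; lower values mean less growth of the strain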; settings: S. cerevisiae deletion strains, growth OD, locus YAL030W, strain snc1, hits give low values
About 2,000 (36%) of roughly 5,500 compounds were called active. Not shown: some 18% with an inconclusive outcome. The list shows a part of the results.
Attribute: normalized growth
The reply should be a number, written without any unit.

Consider the worked cases shown below.
COMPOUND | METRIC_NAME | OBS_VALUE
COP(=S)(OC)SCn1nnc2ccccc2c1=O | normalized growth | 1.03
O=c1c(-c2ccc3c(c2)OCO3)coc2cc(O)ccc12 | normalized growth | 0.991
COc1c2c(cc3occ(-c4ccc5c(c4)OCO5)c(=O)c13)OC(C)(C)C=C2 | normalized growth | 0.997
COc1cc2c(cc1-c1coc3c4c(c(OC)cc3c1=O)OC(C)(C)C=C4)OCO2 | normalized growth | 1.03
CNC(=O)CSP(=S)(OC)OC | normalized growth | 1.01
COc1ccc2c(c1)[nH]c1c(C)nccc12 | normalized growth | 1
COc1ccc2c(=O)c(CC(=O)O)coc2c1 | normalized growth | 0.983
O=c1[nH]cnc2nc[nH]c12 | normalized growth | 1.03
CC(=O)OCC(=O)[C@@]1(O)CCC2C3CCC4=CC(=O)CC[C@]4(C)[C@@]3(F)[C@@H](O)C[C@@]21C (stereo partly specified) | normalized growth | 1.01
CC1(C)S[C@@H]2[C@H](NC(=O)COc3ccccc3)C(=O)N2[C@H]1C(=O)O | normalized growth | 0.989

Proceeding to the next compound to report its normalized growth.
Given CC(=O)OC1CCC23C(=O)OC45CCC(C6=CC(=O)OC6)C4(C)CCC2C5CCC3(O)C1 (stereo unspecified) , state its recorded normalized growth.
0.996
